System: human lung cancer strain NCI-H441;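 also: cell proliferation inhibition after four days measured by CellTiter-Glo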
Classes are defined on IC50 with ranges range A = under 7 nM, range B = from 7 nM up to 60 nM, range C = 60 nM and over

Illustrative cases are given below, each with its answer.
# molecule, qualitative-label
data = [
    ("CC[C@H](C)[C@@H]1NC(=O)[C@H](CC(C)C)N(C)C(=O)C[C@@H](C(=O)N(C)C)N(CCC2CCCC2)C(=O)[C@H](C2CCCC2)N(C)C(=O)C2(CCCC2)NC(=O)[C@@H]2CCCN2C(=O)[C@H](CCc2ccc(C(F)(F)F)c(Cl)c2)NC(=O)CN(C)C(=O)[C@H](Cc2ccc(F)cc2)N2CCCCC[C@@H](C2=O)N(C)C(=O)CN(C)C1=O [PP0975]", "range C"),
    ("CCCCCC[C@H]1C(=O)N[C@@H]([C@@H](C)CC)C(=O)N(C)CC(=O)N(C)[C@H]2C/C=C\\CCN(C2=O)[C@@H](Cc2ccc(C(F)(F)F)cc2)C(=O)N(C)CC(=O)N[C@@H](CCc2ccc3sccc3c2)C(=O)N2C[C@H](OCC)C[C@H]2C(=O)NC2(CCC2)C(=O)N(C)[C@@H](C2CCCC2)C(=O)N(C)[C@H](C(=O)N(C)C)CC(=O)N1C [PP1259]", "range C"),
]

Problem: Category of CCC[C@H]1C(=O)N[C@@H](CC(C)C)C(=O)N2C[C@@H](OC)C[C@H]2C(=O)N(C)[C@H]2C/C=C\CCN(C2=O)[C@@H](Cc2ccc(C)cc2)C(=O)N(C)CC(=O)N[C@@H](CCc2ccc(C(F)(F)F)c(Cl)c2)C(=O)N2C[C@H](OCC)C[C@H]2C(=O)NC2(CC(C)(C)C2)C(=O)N(C)[C@@H](C2CCCC2)C(=O)N(C)[C@H](C(=O)N(C)C)CC(=O)N1C [PP2555] , please.
Result: range C

Problem: Category of CCC[C@H]1C(=O)N[C@@H]([C@@H](C)CC)C(=O)N2CCC[C@H]2C(=O)N(C)[C@H]2C/C=C\CCN(C2=O)[C@@H](Cc2ccc(C(F)(F)F)cc2)C(=O)N(C)CC(=O)N[C@@H](CCc2ccc(C(F)(F)F)c(OC)c2)C(=O)N2C[C@@H](C)C[C@H]2C(=O)N(C)C2(CCC2)C(=O)N(C)[C@@H](C2CCCC2)C(=O)N(C)[C@H](C(=O)N(C)C)CC(=O)N1C [PP2362] , please.
Result: range A

Problem: Category of CCO[C@@H]1C[C@H]2C(=O)NC3(CCC3)C(=O)N(C)[C@@H](C3CCCC3)C(=O)N(C)[C@H](C(=O)N3CCOCC3)CC(=O)N(C)[C@@H](CC(F)F)C(=O)N[C@@H]([C@@H](C)CC)C(=O)N(C)CC(=O)N(C)[C@H]3CCCCCN(C3=O)[C@@H](Cc3ccc(F)cc3)C(=O)N(C)CC(=O)N[C@@H](CCc3cc(F)c(C(F)(F)F)c(F)c3)C(=O)N2C1 [PP1177] , please.
Result: range B

Problem: Category of CCO[C@@H]1C[C@H]2C(=O)NC3(CCC3)C(=O)N(C)[C@@H](C3CCCC3)C(=O)N(C)[C@H](C(=O)N(C)C)CC(=O)N(C)[C@@H](CC3CCCC3)C(=O)N[C@@H]([C@@H](C)CC)C(=O)N(C)CC(=O)N(C)[C@H]3C/C=C\CCN(C3=O)[C@@H](Cc3ccc(F)cc3)C(=O)N(C)CC(=O)N[C@@H](CCc3ccc4sccc4c3)C(=O)N2C1 [PP1390] , please.
Result: range C

Problem: Category of CCC[C@H]1C(=O)N[C@@H]([C@@H](C)CC)C(=O)N(C)CC(=O)N(C)[C@H]2C/C=C\CCN(C2=O)[C@@H](Cc2ccc(C(F)(F)F)cc2)C(=O)N(C)CC(=O)N[C@@H](CCc2ccc(Cl)c(Cl)c2)C(=O)N2C[C@H](OCC)C[C@H]2C(=O)NC2(CC(C)(C)C2)C(=O)N(C)[C@@H](CC(C)(C)C)C(=O)N(C)[C@H](C(=O)N(C)C)CC(=O)N1C [PP2738] , please.
Result: range B

Problem: Category of CCO[C@@H]1C[C@H]2C(=O)NC3(CC(C)(C)C3)C(=O)N(C)[C@@H](C(CC)CC)C(=O)N(C)[C@H](C(=O)N(C)C)CC(=O)N(C)[C@@H](COC)C(=O)N[C@@H]([C@@H](C)CC)C(=O)N(C)CC(=O)N(C)[C@H]3C/C=C\CCN(C3=O)[C@@H](CC3CCCCC3)C(=O)N(C)CC(=O)N[C@@H](CCc3cc(F)c(C(F)(F)F)c(F)c3)C(=O)N2C1 [PP2456] , please.
Result: range B

Problem: Category of CCO[C@@H]1C[C@H]2C(=O)NC3(CCCC3)C(=O)N(C)[C@@H](C3CCCC3)C(=O)N(C)[C@H](C(=O)N(C)C)CC(=O)N(C)[C@@H](CC)C(=O)N[C@@H]([C@@H](C)CC)C(=O)N(C)CC(=O)N(C)[C@H]3C[C@@H](C)[C@@H](C)CN(C3=O)[C@@H](Cc3ccc(C(F)(F)F)cc3)C(=O)N(C)CC(=O)N[C@@H](CCc3cc(F)c(C(F)(F)F)c(F)c3)C(=O)N2C1 [PP1352] , please.
Result: range A

Problem: Category of CCO[C@@H]1C[C@H]2C(=O)NC3(CCC3)C(=O)N(C)[C@@H](C3CCCC3)C(=O)N(C)[C@H](C(=O)N3CCOCC3)CC(=O)N(C)[C@@H](CC)C(=O)N[C@@H]([C@@H](C)CC)C(=O)N3CC[C@H]3C(=O)N(C)[C@H]3C[C@@H](C)[C@@H](C)CN(C3=O)[C@@H](Cc3ccc(C(F)(F)F)cc3)C(=O)N(C)CC(=O)N[C@@H](CCc3ccc(C(F)(F)F)c(Cl)c3)C(=O)N2C1 [PP1357] , please.
Result: range A
